Hey, just so you know, these numbers are from paper PMC3351444.

Target: human CMKLR1 (Homo sapiens)
Construct: host or cells: HEK293A (Invitrogen), stably expressing human Gα15
Sequence (Q99788 whole entry): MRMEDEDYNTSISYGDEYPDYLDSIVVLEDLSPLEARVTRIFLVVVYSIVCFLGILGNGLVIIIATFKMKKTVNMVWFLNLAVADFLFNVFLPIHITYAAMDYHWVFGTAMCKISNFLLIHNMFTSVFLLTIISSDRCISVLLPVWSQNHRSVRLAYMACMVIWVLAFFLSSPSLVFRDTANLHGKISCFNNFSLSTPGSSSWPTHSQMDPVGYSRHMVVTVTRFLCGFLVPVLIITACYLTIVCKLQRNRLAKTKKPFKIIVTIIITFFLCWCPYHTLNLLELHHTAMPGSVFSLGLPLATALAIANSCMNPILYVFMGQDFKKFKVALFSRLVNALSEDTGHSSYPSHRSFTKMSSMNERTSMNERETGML
Experiment: Ca2+ mobilization (CellLux imaging) agonist assay in HEK293A cells expressing CMKLR1 and Gα15
Assay type: cell-based
Settings: intracellular calcium mobilization, HEK293 cells expressing CMKLR1; mean of three independent experiments ± SD; read-out: activity: EC50 ±SD
Ends that are not written are not given here.
measured quantity: EC50 (nM)
One number for each entry, in nM.

INSERT INTO measurements (substance, measured) VALUES
  ('FLPGQYAFS-OH', 2.75);

API: the following record is the query input.
Qu. Bench note: what EC50 did `YLPGQYAFL-OH` show?
Ans. 5.75

* * *

Target: human CMKLR1 (Homo sapiens)
Construct: host or cells: HEK293A (Invitrogen), stably expressing human Gα15
Assay: Ca2+ mobilization (CellLux imaging) agonist assay in HEK293A cells expressing CMKLR1 and Gα15
Type: cell-based
Details: Ca2+ mobilization, CMKLR1; decimal comma
Ends that are not written are not given here.
measured quantity: max response

INSERT INTO measurements (substance, measured) VALUES
  ('YLPGQGAFP-OH [compound 49]', '0,97 DF/F0'),
  ('FPPGQGAFK-OH [compound 66]', '0,67 DF/F0'),
  ('YFPGQYAFF-OH [compound 30]', '0,98 DF/F0'),
  ('YLPGQFQFS-OH [compound 44]', '0,76 DF/F0'),
  ('FLPGQFAFS-NH2 [compound 3]', '1,77 DF/F0');

Answer for every listed entry: what is its max response? The entries follow.
1. YFPGNFAFS-NH2 [compound 6]
2. YLPGQYAFY-OH [compound 48]
3. WYPGNFAFS-NH2 [compound 16]
4. FLPGQYAFL-OH [compound 46]
5. YFPGQYAFF-NH2 [compound 1]
6. YFPGHFAFS-NH2 [compound 7]

Ans.
["1,30 DF/F0", "0,92 DF/F0", "1,47 DF/F0", "1,06 DF/F0", "1,47 DF/F0", "1,55 DF/F0"]

* * *

Experiment: In vitro peptide stability in human serum (RP-HPLC)
Conditions: metabolic stability in human serum
Square brackets hold non-standard residues; d marks the D form. Peptide text beside a SMILES is read from it.
measured quantity: t1/2 (h)
Give bare numbers, in h.

Known t1/2 results, listed for orientation:
INSERT INTO results (compound, measured_quantity, measured) VALUES
  ('CC(C)C[C@H](NC(=O)[C@@H](N)Cc1ccc(O)cc1)C(=O)N1CCC[C@H]1C(=O)NCC(=O)N[C@@H](CCC(N)=O)C(=O)N[C@@H](Cc1ccc(O)cc1)C(=O)N[C@H](Cc1c[nH]c2ccccc12)C(=O)N[C@@H](Cc1ccccc1)C(=O)N[C@H](Cc1ccccc1)C(=O)O [compound 122] (H-YLPGQY[dW]F[dF]-OH; N-terminus assumed)', 't1/2', 2.65),
  ('CC(C)C[C@H](NC(=O)[C@H](N)Cc1ccccc1)C(=O)N1CCC[C@H]1C(=O)NCC(=O)N[C@@H](CCC(N)=O)C(=O)N[C@@H](Cc1ccc(O)cc1)C(=O)N[C@@H](C)C(=O)N[C@@H](Cc1ccccc1)C(=O)N[C@H](Cc1ccccc1)C(=O)O [compound 83] (H-[dF]LPGQYAF[dF]-OH; N-terminus assumed)', 't1/2', 19.28),
  ('CC(C)C[C@H](NC(=O)[C@@H](N)Cc1ccc(O)cc1)C(=O)N1CCC[C@H]1C(=O)N[C@H](CCC(N)=O)C(=O)N[C@@H](CCC(N)=O)C(=O)N[C@@H](Cc1ccc(O)cc1)C(=O)N[C@@H](C)C(=O)N[C@@H](Cc1ccccc1)C(=O)N[C@H](Cc1ccccc1)C(=O)O [compound 123] (H-YLP[dQ]QYAF[dF]-OH; N-terminus assumed)', 't1/2', 1.45),
  ('CC(C)[C@H](NC(=O)[C@@H](N)Cc1ccc(O)cc1)C(=O)N1CCC[C@H]1C(=O)NCC(=O)N[C@@H](CCC(N)=O)C(=O)N[C@@H](Cc1ccccc1)C(=O)N[C@@H](C)C(=O)N[C@@H](Cc1ccccc1)C(=O)N[C@H](Cc1ccccc1)C(=O)O [compound 35] (H-YVPGQFAF[dF]-OH; N-terminus assumed)', 't1/2', 0.7);

API: the following record is the query input.
Qu. Bench note: what t1/2 did CC(C)C[C@H](NC(=O)[C@H](N)Cc1ccc(O)cc1)C(=O)N1CCC[C@H]1C(=O)N[C@H](CO)C(=O)N[C@@H](CCC(N)=O)C(=O)N[C@@H](Cc1ccc(O)cc1)C(=O)N[C@@H](C)C(=O)N[C@@H](Cc1ccccc1)C(=O)N[C@H](CO)C(=O)O [compound 121] (H-[dY]LP[dS]QYAF[dS]-OH; N-terminus assumed) show?
Ans. 23.47
